GI50 listing for selected compounds.
- Test system: UACC-62
- test.description: NCI tumour cell line growth inhibition, 48 h
Calls of active or inactive are those of the source. Rule as the data show it: active = GI50 up to about 1.1 µM and inactive = higher.

{"columns": ["compound", "assay.system", "GI50"],
 "data": [
  ["Cc1cc(Br)ccc1/N=N/C1C(=O)ON=C1c1ccccc1 (stereo unspecified)", "UACC-62", "> 100 µM (inactive)"],
  ["CC(C)(C)[Si](C)(C)OCC1OC(n2cnc3c(N)ncnc32)C(O)C1O (stereo unspecified)", "UACC-62", "22.1 µM (inactive)"],
  ["O=[N+]([O-])C1CC/C(=N/O)c2nonc21 (stereo unspecified)", "UACC-62", "> 10 µM (inactive)"],
  ["NC1CC(=O)c2cc(Cl)sc21 (stereo unspecified)", "UACC-62", "> 100 µM (inactive)"],
  ["Cc1cc(O)nc(CNC(=O)c2cccc(C(=O)NCc3cc(O)nc(C)n3)c2)n1", "UACC-62", "> 100 µM (inactive)"],
  ["C=C1C(=O)O[C@@H]2[C@H]1CC[C@H](C)[C@]1(O)CCC(=O)[C@@]21C [CORONOPILIN]", "UACC-62", "> 10 µM (inactive)"],
  ["OC(COc1ccccc1)CN1CCCCC1 (stereo unspecified)", "UACC-62", "> 100 µM (inactive)"],
  ["COc1ccc(-c2oc(/C=N/c3ccccc3)c([N+](=O)[O-])c2-c2ccc(OC)c(OC)c2)cc1OC", "UACC-62", "> 100 µM (inactive)"],
  ["Cc1nc(N)nc(S)c1CCCNc1ccccc1", "UACC-62", "78.2 µM (inactive)"],
  ["CC(NCc1c(O)ccc2c(-c3ccccc3)cc(=O)oc12)C(=O)O (stereo unspecified)", "UACC-62", "> 100 µM (inactive)"],
  ["CCOC(=O)C1=C(Nc2cccc(OC)c2)OCC1=O", "UACC-62", "> 100 µM (inactive)"]
]}

====

- System: SK-MEL-28
- test.description: NCI tumour cell line growth inhibition, 48 h
The source made the active and inactive calls. No stated cut-off is given here; in the data, active = GI50 up to about 1.1 µM and inactive = higher.
Outcomes: active, inactive

{"columns": ["compound", "assay.system", "class.label"],
 "data": [
  ["c1cncc(CSc2nc3ccccc3nc2-c2cccs2)c1", "SK-MEL-28", "inactive"],
  ["CC(=O)NNC1=NN(C(C)=O)C2(S1)C(=O)Nc1ccccc12 (configuration not stated)", "SK-MEL-28", "inactive"],
  ["Cc1ccc(NC(=S)C#N)cc1Cl", "SK-MEL-28", "inactive"],
  ["Cc1nc(N)nc(S)c1CCC(=O)O", "SK-MEL-28", "inactive"],
  ["CC1(C)C2CC(=O)C1(C)C(OCc1ccccc1)C2 (configuration not stated)", "SK-MEL-28", "inactive"],
  ["C[Si]12OCCCN(CCO1)CCO2", "SK-MEL-28", "inactive"],
  ["CCOC(=O)C(C(=O)OCC)C1C=CCC2c3ccccc3COCC21 (configuration not stated)", "SK-MEL-28", "inactive"],
  ["COc1cc(N(CCC#N)CCC#N)ccc1C(=N/NC(=O)c1cc(Br)ccc1O)/N=N/c1ccc(C)cc1", "SK-MEL-28", "inactive"],
  ["C=C1CC[C@H]2C(C)=CC[C@H]3C(=C)C(=O)O[C@@H]3[C@@H]12", "SK-MEL-28", "inactive"],
  ["O=C(Nc1cccc(Cl)c1)c1cc2cc(/N=N/c3ccc(Br)cc3)ccc2oc1=O", "SK-MEL-28", "inactive"],
  ["O=C(O)C(Oc1nc(S)nc(S)n1)(c1ccc(Cl)cc1)c1ccc(Cl)cc1", "SK-MEL-28", "inactive"],
  ["Cc1ccc2nc(/C=N/c3ccc(Cl)cc3)cc(C)c2c1", "SK-MEL-28", "inactive"],
  ["O=C(NC(Nc1ccc(F)c(Cl)c1)(C(F)(F)F)C(F)(F)F)C(C(F)(F)F)C(F)(F)F", "SK-MEL-28", "inactive"],
  ["O=C(Nc1ccn(C2CCC(COC(c3ccccc3)(c3ccccc3)c3ccccc3)O2)c(=O)n1)c1ccccc1 (configuration not stated)", "SK-MEL-28", "inactive"],
  ["CCOC(=O)C1=C(Nc2cccc(OC)c2)OCC1=O", "SK-MEL-28", "inactive"],
  ["COc1cc2c(cc1OC)C(=O)N(c1ccc(OCCN3CCCC3)cc1)C2=O", "SK-MEL-28", "inactive"],
  ["COC(=O)c1c(O)ccc2c1c1c(n2Cc2ccc(OC)cc2)C(=O)c2ccccc2C1", "SK-MEL-28", "inactive"],
  ["CCN(CC)C(=O)N1CCN(C=S)CC1", "SK-MEL-28", "inactive"],
  ["O=C(O)CC(C(=O)O)c1ccccc1[N+](=O)[O-] (configuration not stated)", "SK-MEL-28", "inactive"],
  ["O=C(CSCC(=O)N/N=C/c1cccc(OCc2ccccc2)c1)N/N=C/c1cccc(OCc2ccccc2)c1", "SK-MEL-28", "inactive"],
  ["C=CCN1CC2CN=NC2(C#N)C1 (configuration not stated)", "SK-MEL-28", "inactive"],
  ["C=C1CC2(CC(c3ccccc3Cl)OC(c3ccccc3Cl)C2)OC1=O (configuration not stated)", "SK-MEL-28", "inactive"],
  ["Oc1cccc2c1NC1=C(CCC/C1=C\\c1ccccc1)C2", "SK-MEL-28", "inactive"],
  ["CC1=CC2=C(C#N)C(=O)OC2(C)C(c2ccccc2)C1 (configuration not stated)", "SK-MEL-28", "inactive"],
  ["C=C1C(=O)OC2C(C)C3C=CC(=O)[C@@]3(C)C(OC(=O)/C(C)=C/C)C1[C@@H]2OC(C)=O (some centres not stated)", "SK-MEL-28", "active"],
  ["c1ccc(/C(=N/Nc2cnccn2)c2ncccn2)cc1", "SK-MEL-28", "inactive"],
  ["COc1ccc(P2(=S)Oc3ccccc3-c3ccccc3O2)cc1", "SK-MEL-28", "inactive"],
  ["C(=C\\C(Sc1ccccc1)c1ccccc1)/NNC1=NN=C(c2ccccc2)C(c2ccccc2)N1 (configuration not stated)", "SK-MEL-28", "inactive"],
  ["O=[N+]([O-])c1ccc(-c2ccc(C3=Nn4c(CNc5ccccc5Cl)nnc4SC3)o2)cc1", "SK-MEL-28", "inactive"],
  ["COc1ccc(C2ON(c3ccccn3)CC=C2C)cc1 (configuration not stated)", "SK-MEL-28", "inactive"],
  ["CCN(CC)CC(C)(C)C(=O)/C=C/c1ccc(/C=C/C(=O)C(C)(C)CN(CC)CC)cc1", "SK-MEL-28", "active"],
  ["Nc1nc2[nH]cc(CCc3ccc(C(=O)N[C@@H](CCC(=O)O)C(=O)O)cc3)c2c(=O)[nH]1", "SK-MEL-28", "inactive"],
  ["CCCCCNC(=O)c1cc2cc(CCl)ccc2oc1=O", "SK-MEL-28", "inactive"],
  ["c1ccc(CN2CCc3[nH]c4ccccc4c3C2)cc1", "SK-MEL-28", "inactive"],
  ["COc1c2c(cc3c1C(=O)c1c(O)cccc1C3=O)CC(O)CC2 (configuration not stated)", "SK-MEL-28", "inactive"],
  ["C=C1CC(CCCl)(c2ccccc2)OC1=O (configuration not stated)", "SK-MEL-28", "inactive"],
  ["CCOC(=O)c1c(C)[nH]c2c1c(CN(C)C)c(O)c1nc(C)c(C)nc12", "SK-MEL-28", "inactive"],
  ["COC(=O)C1=C(C(=O)OC)N(c2ccc(OC)cc2[N+](=O)[O-])C(c2ccc(C)cc2)=CC1c1ccc(OC)cc1OC (configuration not stated)", "SK-MEL-28", "inactive"],
  ["CNc1ncnc2c1nc(NC1CCCC1)n2C1OC(CO)C(O)C1O (configuration not stated)", "SK-MEL-28", "inactive"],
  ["Cc1cc(C)c2c(O)cc(-c3ccc4ccccc4c3)nc2n1", "SK-MEL-28", "inactive"],
  ["CC[C@]12C=CCN3CCC4(c5cc([C@@]6(C(=O)OC)CC7CN(CCc8c6[nH]c6ccccc86)C[C@@H]6CCCC[C@H]76)c(OC)cc5N(C)C4[C@](O)(C(=O)OC)C1OC(C)=O)[C@@H]32 (some centres not stated)", "SK-MEL-28", "inactive"],
  ["N#CC(C(=O)C(=O)Nc1ccccc1)c1ccccc1 (configuration not stated)", "SK-MEL-28", "inactive"]
]}

Cited source: ChEMBL document CHEMBL1201862
